experiment: water solubility; format: physicochemical; conditions: in water
assay metric: solubility

// query Look up solubility for this molecule: `Nc1nc(Cl)nc2c1ncn2[C@H]1C[C@H](O)[C@@H](CO)O1`
// result ~1000 µg/mL
